tested.on: aldose reductase of kidney (Canis lupus familiaris, UniProt A0A8I3P2L6)
method.summary: Inhibitory effect on aldose reductase of kidney
Format: biochemical, dog
condition.summary: concentration 1x10^-5 M; read-out: Degree of inhibition for aldose reductase (%)
recorded.metric: inhibition at 10 µM (%)
I only need the number, in %, no unit after it.

Ask: // returns reported inhibition at 10 µM for input O=C(O)c1cc(C(=O)O)c2c(n1)c1nc(Cc3ccc(O)cc3)oc1c1cc(C(=O)O)[nH]c12 [4-Hydroxybenzyl OPQ]
Reply: 89

Ask: Any idea what its inhibition at 10 µM is? The compound is CSCCc1nc2c3nc(C(=O)O)cc(C(=O)O)c3c3[nH]c(C(=O)O)cc3c2o1
Reply: 83

Ask: Any idea what inhibition at 10 µM was measured for O=C(O)CCc1nc2c3nc(C(=O)O)cc(C(=O)O)c3c3[nH]c(C(=O)O)cc3c2o1 ?
Reply: 58.5

Ask: Please look up its inhibition at 10 µM: O=C(O)c1cc(C(=O)O)c2c(n1)C(=O)C(=O)c1cc(C(=O)O)[nH]c1-2 [PQQ, pyrroloquinolinequinone, reference compound]
Reply: 64.4

* * *

Tested on: kidney
method.summary: Toxicity to kidney determined by blood examination
Assay type: in vivo, mice
condition.summary: serum, 40 mg/kg mouse intraperitoneally; Table 2, no administration 0.8
recorded.metric: Creatinine (mg/dL)
Give just the number in mg/dL; leave the unit off.

Ask: Return reported Creatinine; argument: O=C(O)c1cc(C(=O)O)c2c(n1)c1ncoc1c1cc(C(=O)O)[nH]c12
Reply: 0.7

Ask: For CCC(C)c1nc2c3nc(C(=O)O)cc(C(=O)O)c3c3[nH]c(C(=O)O)cc3c2o1 (stereo not shown) , what is its reported Creatinine?
Reply: 0.8

Ask: Query (compound): CSCCc1nc2c3nc(C(=O)O)cc(C(=O)O)c3c3[nH]c(C(=O)O)cc3c2o1 ; field requested: Creatinine
Reply: 0.8

Ask: What does the data say about its Creatinine? Entry: O=C(O)c1cc(C(=O)O)c2c(n1)c1nc(Cc3ccccc3)oc1c1cc(C(=O)O)[nH]c12
Reply: 0.7

* * *

Please respond with reported Urea nitrogen for every item in the list.
Tested on: kidney
method.summary: Toxicity to kidney determined by blood examination
Type: in vivo, mice
condition.summary: serum, 40 mg/kg mouse intraperitoneally; Table 2, no administration 24
State the answer as a number, implicitly in mg/dL.

Ask: Need Urea nitrogen, item CSCCc1nc2c3nc(C(=O)O)cc(C(=O)O)c3c3[nH]c(C(=O)O)cc3c2o1
Reply: 26

Ask: What value of Urea nitrogen has been recorded for this entry: O=C(O)c1cc(C(=O)O)c2c(n1)c1ncoc1c1cc(C(=O)O)[nH]c12
Reply: 25

Ask: Need Urea nitrogen, item CCC(C)c1nc2c3nc(C(=O)O)cc(C(=O)O)c3c3[nH]c(C(=O)O)cc3c2o1 (stereo not shown)
Reply: 26

Ask: Return reported Urea nitrogen; argument: O=C(O)c1cc(C(=O)O)c2c(n1)c1nc(Cc3ccccc3)oc1c1cc(C(=O)O)[nH]c12
Reply: 23

* * *

Provide the reported Creatinine of each item.
Tested on: kidney
method.summary: Toxicity to kidney determined by blood examination
Type: in vivo, mice
condition.summary: serum, 160 mg/kg mouse intraperitoneally; Table 2, no administration 0.8
Method: After one day from administration, the mice were fasted (only water was given) and after lapse of 18 hours, blood was collected and serum was obtained therefrom. Glucose, urea nitrogen and creatinine in the serum were examined using FUJI Dry Chemslide (manufactured by Fuji Photo Film Co., Ltd.). […] Thereafter, the mice were fasted (with giving only water) and after lapse of 18 hours, blood was collected and serum was obtained therefrom. […]
Give just the numeric value; mg/dL need not be written.

Ask: Recorded Creatinine of O=C(O)c1cc(C(=O)O)c2c(n1)c1ncoc1c1cc(C(=O)O)[nH]c12 , please.
Reply: 0.7

Ask: Entry CCC(C)c1nc2c3nc(C(=O)O)cc(C(=O)O)c3c3[nH]c(C(=O)O)cc3c2o1 (stereo not shown) : reported Creatinine = ?
Reply: 0.8

Ask: // returns reported Creatinine for input CSCCc1nc2c3nc(C(=O)O)cc(C(=O)O)c3c3[nH]c(C(=O)O)cc3c2o1
Reply: 0.6

Ask: What value of measured Creatinine is listed for O=C(O)c1cc(C(=O)O)c2c(n1)c1nc(Cc3ccccc3)oc1c1cc(C(=O)O)[nH]c12 ?
Reply: 0.7

* * *

System: kidney
method.summary: Toxicity to kidney determined by blood examination
Format: in vivo, mice
condition.summary: serum, 40 mg/kg mouse intraperitoneally; Table 2, no administration 78
recorded.metric: Glucose
Number plus unit, in that order.

Ask: Return reported Glucose; argument: CCC(C)c1nc2c3nc(C(=O)O)cc(C(=O)O)c3c3[nH]c(C(=O)O)cc3c2o1 (stereo not shown)
Reply: 87 mg/dL

Ask: Can you look up the measured Glucose of CSCCc1nc2c3nc(C(=O)O)cc(C(=O)O)c3c3[nH]c(C(=O)O)cc3c2o1 for me?
Reply: 96 mg/dL

Ask: Look at this compound and give its reported Glucose. O=C(O)c1cc(C(=O)O)c2c(n1)c1nc(Cc3ccccc3)oc1c1cc(C(=O)O)[nH]c12
Reply: 90 mg/dL

Ask: // Glucose lookup, key: O=C(O)c1cc(C(=O)O)c2c(n1)c1ncoc1c1cc(C(=O)O)[nH]c12
Reply: 90 mg/dL

* * *

Exercise: state measured Glucose for each of the molecules provided.
System: kidney
method.summary: Toxicity to kidney determined by blood examination
Format: in vivo, mice
condition.summary: serum, 200 mg/kg mouse intraperitoneally; Table 2, no administration 78

Ask: Please report the recorded Glucose for CCC(C)c1nc2c3nc(C(=O)O)cc(C(=O)O)c3c3[nH]c(C(=O)O)cc3c2o1 (stereo not shown) .
Reply: 66 mg/dL

Ask: Find the recorded Glucose belonging to CSCCc1nc2c3nc(C(=O)O)cc(C(=O)O)c3c3[nH]c(C(=O)O)cc3c2o1 and report it.
Reply: 72 mg/dL

Ask: Would you mind telling me what Glucose value was observed for O=C(O)c1cc(C(=O)O)c2c(n1)c1nc(Cc3ccccc3)oc1c1cc(C(=O)O)[nH]c12 ?
Reply: 84 mg/dL

Ask: For O=C(O)c1cc(C(=O)O)c2c(n1)c1ncoc1c1cc(C(=O)O)[nH]c12 , what is its reported Glucose?
Reply: 85 mg/dL

* * *

method.summary: Solubility of the isolated compound, described in words
Type: physicochemical
condition.summary: water, neutral and alkaline conditions
recorded.metric: solubility under neutral and alkaline conditions

Solved cases (5 shown):
compound | test.result
CCC(C)c1nc2c3nc(C(=O)O)cc(C(=O)O)c3c3[nH]c(C(=O)O)cc3c2o1 (stereo not drawn) | very easily soluble
CC(C)c1nc2c3nc(C(=O)O)cc(C(=O)O)c3c3[nH]c(C(=O)O)cc3c2o1 | very easily soluble
CSCCc1nc2c3nc(C(=O)O)cc(C(=O)O)c3c3[nH]c(C(=O)O)cc3c2o1 | especially soluble
O=C(O)c1cc(C(=O)O)c2c(n1)c1nc(Cc3ccccc3)oc1c1cc(C(=O)O)[nH]c12 | especially soluble
CC(C)Cc1nc2c3nc(C(=O)O)cc(C(=O)O)c3c3[nH]c(C(=O)O)cc3c2o1 | very easily soluble

Next compound, please.
Ask: For the compound shown here, O=C(O)c1cc(C(=O)O)c2c(n1)c1nc(Cc3ccc(O)cc3)oc1c1cc(C(=O)O)[nH]c12 [4-Hydroxybenzyl OPQ] , give the reported solubility under neutral and alkaline conditions.
Reply: especially soluble

* * *

Assignment: determine reported inhibition at 1 µM for the given compounds.
tested.on: aldose reductase of rabbit lens (Oryctolagus cuniculus)
Construct: to obtain electrophoretically homogeneous aldose reductase; from tissue; host or cells: rabbit lens
method.summary: Inhibitory effect on aldose reductase of lens
Format: biochemical
condition.summary: concentration 1x10^-6 M; read-out: Degree of inhibition for aldose reductase (%)
Write the value in % as a bare number.

Ask: Given the compound CC(C)c1nc2c3nc(C(=O)O)cc(C(=O)O)c3c3[nH]c(C(=O)O)cc3c2o1 , what is its reported inhibition at 1 µM?
Reply: 43.3

Ask: For CCC(C)c1nc2c3nc(C(=O)O)cc(C(=O)O)c3c3[nH]c(C(=O)O)cc3c2o1 (stereo not shown) , what is its reported inhibition at 1 µM?
Reply: 64.7

Ask: Consider the compound O=C(O)c1cc(C(=O)O)c2c(n1)c1nc(CO)oc1c1cc(C(=O)O)[nH]c12 [Hydroxymethyl OPQ] and give its measured inhibition at 1 µM.
Reply: 50.1

Ask: Bench note: what inhibition at 1 µM did CC(C)Cc1nc2c3nc(C(=O)O)cc(C(=O)O)c3c3[nH]c(C(=O)O)cc3c2o1 show?
Reply: 69.8

* * *

tested.on: aldose reductase of kidney (Canis lupus familiaris)
method.summary: Inhibitory effect on aldose reductase of kidney
Assay type: biochemical, dog
condition.summary: concentration 1x10^-6 M; read-out: Degree of inhibition for aldose reductase (%)
Outcome label depends on inhibition at 1 µM relative to 50%: at/above gives Fulfilled, below gives Not fulfilled.

Ask: Given Cc1nc2c3nc(C(=O)O)cc(C(=O)O)c3c3[nH]c(C(=O)O)cc3c2o1 , state whether its inhibition at 1 µM is at least 50%.
Reply: Fulfilled

Ask: Tell me whether inhibition at 1 µM is at least 50% here: CC(C)c1nc2c3nc(C(=O)O)cc(C(=O)O)c3c3[nH]c(C(=O)O)cc3c2o1
Reply: Not fulfilled

Ask: I'd appreciate it if you could say whether O=C(O)c1cc(C(=O)O)c2c(n1)c1nc(Cc3ccccc3)oc1c1cc(C(=O)O)[nH]c12 has inhibition at 1 µM at least equal to 50%.
Reply: Not fulfilled

Ask: inhibition at 1 µM >= 50% for O=C(O)CCc1nc2c3nc(C(=O)O)cc(C(=O)O)c3c3[nH]c(C(=O)O)cc3c2o1 ?
Reply: Not fulfilled

Ask: Please tell me: is the compound CC(C)Cc1nc2c3nc(C(=O)O)cc(C(=O)O)c3c3[nH]c(C(=O)O)cc3c2o1 at or over 50% in terms of inhibition at 1 µM?
Reply: Fulfilled

Ask: Does inhibition at 1 µM meet or surpass 50% for O=C(O)c1cc(C(=O)O)c2c(n1)c1nc(CO)oc1c1cc(C(=O)O)[nH]c12 [Hydroxymethyl OPQ] ?
Reply: Fulfilled

Ask: Evaluate CSCCc1nc2c3nc(C(=O)O)cc(C(=O)O)c3c3[nH]c(C(=O)O)cc3c2o1 : inhibition at 1 µM at minimum 50%?
Reply: Not fulfilled

Ask: Is reported inhibition at 1 µM greater than or equal to 50% here: O=C(O)c1cc(C(=O)O)c2c(n1)c1nc(Cc3ccc(O)cc3)oc1c1cc(C(=O)O)[nH]c12 [4-Hydroxybenzyl OPQ]
Reply: Not fulfilled

Ask: Please tell me: is the compound NC(=O)CCc1nc2c3nc(C(=O)O)cc(C(=O)O)c3c3[nH]c(C(=O)O)cc3c2o1 at or over 50% in terms of inhibition at 1 µM?
Reply: Fulfilled
